Test system: MS2 coat protein
Assay: apparent KD of MS2 coat protein, switch ON state; designed switch direction (-1 OFF switch, 1 ON switch): -1; higher = weaker reporter binding
Conditions: FMN input: 0 or 200 uM; Eterna round: R93 (includes R88 designs)
Use y when the recorded apparent KD of MS2 coat protein is no lower than 40 nM; use n when it is lower.

Sample answers from the record:
>>> assigned_label("AAAAAACAUGAGGAUCACCCAUGUAAGGAUAUGCUGGUGCGAAAGCACAAAAAAAACAGCAGAAGGUACAAAAA [66%, Wbt, 37]")
"n"
>>> assigned_label("AAAAAGAUAGGAUAUACGUACAUGUCGAAAGACGUGAAGGGACAUGAGGAUCACCCAUGUAGAAGGGUUAAAAA [Mat - Exclusion 2 - JL mod - D91]")
"y"
>>> assigned_label("GGAACACAUGAGGAUCACCCAUGUCAGGAUAUGUAGAUAAAAAGAAAAUAAAAUAAAAACAGAAGGGACAAAAG [May 3]")
"y"
>>> assigned_label("GUGUACAGAGGAUAUACAUGGGCAUGAAAACAUGCAUCCUCACAUGAGGAUCACCCAUGUAGAAGGCUGUACAC [Ex2: 706]")
"n"

Now take the following sequence into account.
Exam item: Is apparent KD of MS2 coat protein for UAUAGACAUGAGGAUCACCCAUGUGAGGAUAUGAGUGACUACAGGACAUCACGUACAAUCAGAAGGCACAGAAA [JR_Exc001_Sub016] at or above 40 nM?
Marked response: y
